IC50 listing for selected compounds.
- Target: CYP3A4 (Homo sapiens)
- Experiment description: Determination of CYP3A4 inhibitory activity (human liver microsome, Luciferin-IPA)
- Run parameters: CYP3A4 IC50 (nM), 37° C. 11 minutes
- Description: The standard final Compound concentrations were 37, 111, 333, 1000, and 3000 nM. 12.5 μL of the Compound dilutions were transferred to a white 96-well plate. […] 25 μL of the buffer was added to each well. The plates were incubated at 37° C. for 11 minutes. 50 μL of luciferin detection reagent (Promega V9002) was added and the plates were incubated at room temperature for 5 minutes. The plate was read with a luminometer. […]

Exercise: // returns reported IC50 for input COc1cc(NC(=O)c2cc(=O)c3ccccc3o2)c(C(=O)Nc2ccc(CCN(Cc3ccc(-n4ccnc4C)cc3)Cc3ccc4c(cnn4C)c3)cc2)cc1OC [Compound 241]
Key: > 1000 nM

Exercise: // returns reported IC50 for input COc1cc(NC(=O)c2cc(=O)c3ccccc3o2)c(C(=O)Nc2ccc(CCN(C)Cc3ccc(-n4ccnc4)c(OC)c3)cc2)cc1OC [Compound 87]
Key: 100 to 250 nM

Exercise: // returns reported IC50 for input COc1cc(NC(=O)c2cc(=O)c3ccccc3o2)c(C(=O)Nc2ccc(CCN(C)Cc3ccc4c(c3)OCO4)cc2)cc1OC [Compound 138]
Key: > 1000 nM

Exercise: // returns reported IC50 for input CCN(CCc1ccc(NC(=O)c2cc(OC)c(OC)cc2NC(=O)c2cc(=O)c3ccccc3o2)cc1)Cc1ccc(OC)c(Cn2cncn2)c1 [Compound 24]
Key: 100 to 250 nM

Exercise: // returns reported IC50 for input COc1cc(NC(=O)c2cc(=O)c3ccccc3o2)c(C(=O)Nc2ccc(CCN(C)Cc3ccc4c(c3)ncn4C)cc2)cc1OC [Compound 98]
Key: > 1000 nM

Exercise: // returns reported IC50 for input CCN(CCc1ccc(NC(=O)c2cc(OC)c(OC)cc2NC(=O)c2cc(=O)c3ccccc3o2)cc1)Cc1ccc(OCCn2ccnc2)cc1 [Compound 131]
Key: 250 to 500 nM

###

IC50 listing for selected compounds.
- Target: CYP3A4 (Homo sapiens, UniProt P08684)
- Sequence (P08684 whole entry): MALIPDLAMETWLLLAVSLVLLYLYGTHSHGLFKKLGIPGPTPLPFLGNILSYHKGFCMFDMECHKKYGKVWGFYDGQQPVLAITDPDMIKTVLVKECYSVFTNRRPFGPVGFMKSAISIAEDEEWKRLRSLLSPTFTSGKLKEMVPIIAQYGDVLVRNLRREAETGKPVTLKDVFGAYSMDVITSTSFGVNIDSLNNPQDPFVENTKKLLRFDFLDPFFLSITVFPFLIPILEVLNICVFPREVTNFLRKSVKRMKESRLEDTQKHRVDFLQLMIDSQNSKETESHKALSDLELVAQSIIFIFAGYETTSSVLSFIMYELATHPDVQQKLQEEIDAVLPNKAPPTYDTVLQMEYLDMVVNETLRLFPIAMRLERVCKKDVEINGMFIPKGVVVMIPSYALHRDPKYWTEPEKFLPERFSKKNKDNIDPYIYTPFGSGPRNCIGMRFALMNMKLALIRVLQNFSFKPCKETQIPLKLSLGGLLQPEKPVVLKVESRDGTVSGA
- Experiment description: Determination of CYP3A4 inhibitory activity (human liver microsome, Luciferin-IPA)
- Run parameters: CYP3A4 IC50 (nM), 37° C. 11 minutes

Molecule smiles | Property label | Meas value
COC(=O)c1ccc(CN(CCc2ccc(NC(=O)c3cc(OC)c(OC)cc3NC(=O)c3cc(=O)c4ccccc4o3)cc2)Cc2cccc(-n3ccnc3)c2)cc1 | IC50 | 100 to 250 nM

Exercise: // returns reported IC50 for input COc1cc(NC(=O)c2cc(=O)c3ccccc3o2)c(C(=O)Nc2ccc(CCN(C)Cc3ccc4c(c3)CCO4)cc2)cc1OC
Key: > 1000 nM

Exercise: // returns reported IC50 for input COc1cnccc1CN(CCc1ccc(NC(=O)c2cc(OC)c(OC)cc2NC(=O)c2cc(=O)c3ccccc3o2)cc1)Cc1ccc2c(cnn2C)c1
Key: 250 to 500 nM

Exercise: // returns reported IC50 for input COc1ccc(CN(CCc2ccc(NC(=O)c3cc(OC)c(OC)cc3NC(=O)c3cc(=O)c4ccccc4o3)cc2)Cc2cccc(-n3ccnc3)c2)cc1C#N
Key: 100 to 250 nM

Exercise: // returns reported IC50 for input CCOc1cc(C(=O)Nc2ccc(CCN(C)Cc3ccc4c(cnn4C)c3)cc2)c(NC(=O)c2cc(=O)c3ccccc3o2)cc1OC
Key: > 1000 nM

Exercise: // returns reported IC50 for input COc1cc(NC(=O)c2cc(=O)c3ccccc3o2)c(C(=O)Nc2ccc(CCN(C)Cc3ccc(-c4cscn4)cc3)cc2)cc1OC
Key: > 1000 nM

Exercise: // returns reported IC50 for input COc1cc(NC(=O)c2cc(=O)c3ccccc3o2)c(C(=O)Nc2ccc(CCN(Cc3cncc(C)c3)Cc3ccc4c(cnn4C)c3)cc2)cc1OC
Key: 250 to 500 nM

Exercise: // returns reported IC50 for input Cn1ncc2cc(CN(CCc3ccc(NC(=O)c4ccc(C(=O)OCc5cncs5)cc4NC(=O)c4cc(=O)c5ccccc5o4)cc3)Cc3ccc4c(cnn4C)c3)ccc21
Key: > 1000 nM

Exercise: // returns reported IC50 for input COc1ccc(CN(CCc2ccc(NC(=O)c3cc(OC)c(OC)cc3NC(=O)c3cc(=O)c4ccccc4o3)cc2)Cc2cccc(-n3ccnc3)c2)cc1OC
Key: 100 to 250 nM

Exercise: // returns reported IC50 for input COCCOc1cncc(CN(CCc2ccc(NC(=O)c3cc(OC)c(OC)cc3NC(=O)c3cc(=O)c4ccccc4o3)cc2)Cc2ccc3c(c2)c(C)nn3C)c1
Key: 100 to 250 nM

Exercise: // returns reported IC50 for input COc1cc(NC(=O)c2cc(=O)c3ccccc3o2)c(C(=O)Nc2ccc(CCN(Cc3cncc(Cl)c3)Cc3ccc4c(cnn4C)c3)cc2)cc1OC
Key: 500 to 1000 nM

Exercise: // returns reported IC50 for input COc1cc(NC(=O)c2cc(=O)c3ccccc3o2)c(C(=O)Nc2ccc(CCN(Cc3cccnc3)Cc3ccc4c(c3)CCO4)cc2)cc1OC
Key: 250 to 500 nM

###

- Target: CYP3A4 (Homo sapiens, UniProt P08684)
- Experiment description: Determination of CYP3A4 inhibitory activity (human liver microsome, Luciferin-IPA)
- Run parameters: CYP3A4 IC50 (nM), 37° C. 11 minutes
Property label: IC50

Molecule smiles | Target | IC50
COc1cc(NC(=O)c2cc(=O)c3ccccc3o2)c(C(=O)Nc2ccc(CCN(Cc3ccc4cnn(C)c4c3)Cc3ncc[nH]3)cc2)cc1OC | CYP3A4 (Homo sapiens, UniProt P08684) | 100 to 250 nM
COc1cc(NC(=O)c2cnc3ccccc3n2)c(C(=O)Nc2ccc(CCN(Cc3ccc4c(cnn4C)c3)Cc3ccc4c(cnn4C)c3)cc2)cc1OC | CYP3A4 (Homo sapiens, UniProt P08684) | > 1000 nM
CCn1c2ccccc2c2cc(CN(CCc3ccc(NC(=O)c4cc(OC)c(OC)cc4NC(=O)c4cc(=O)c5ccccc5o4)cc3)Cc3cccc(-n4ccnc4)c3)ccc21 | CYP3A4 (Homo sapiens, UniProt P08684) | > 1000 nM

Exercise: // returns reported IC50 for input CCn1ncc2cc(CN(C)CCc3ccc(NC(=O)c4cc(OC)c(OC)cc4NC(=O)c4cc(=O)c5ccccc5o4)cc3)ccc21
Key: > 1000 nM

Exercise: // returns reported IC50 for input COc1cc(NC(=O)c2cnc3ccccc3n2)c(C(=O)Nc2ccc(CCN(Cc3ccc4c(cnn4C)c3)Cc3ccc(C)c4ncccc34)cc2)cc1OC
Key: > 1000 nM

Exercise: // returns reported IC50 for input COc1cc(NC(=O)c2cc(=O)c3ccccc3o2)c(C(=O)Nc2ccc(CCN(Cc3ccc(-c4ccncc4)cc3)Cc3ccc4cnn(C)c4c3)cc2)cc1OC
Key: > 1000 nM

###

IC50 listing for selected molecules.
- Target: UniProt:P08684
- Experiment description: Determination of CYP3A4 inhibitory activity (human liver microsome, Luciferin-IPA)
- Run parameters: CYP3A4 IC50 (nM), 37° C. 11 minutes

Here are 4 molecules together with their reported answers.
Molecule smiles | IC50
COc1cc(NC(=O)c2cc(=O)c3ccccc3o2)c(C(=O)Nc2ccc(CCN(Cc3cccc(-n4ccnc4)c3)CC(C)C)cc2)cc1OC | 250 to 500 nM
COc1cc(NC(=O)c2cc(=O)c3ccccc3o2)c(C(=O)Nc2ccc(CCN(Cc3ccc4c(cnn4C)c3)C(=O)OC(C)(C)C)cc2)cc1OC | > 1000 nM
COc1cncc(CN(CCc2ccc(NC(=O)c3cc(OC)c(OC)cc3NC(=O)c3cc(=O)c4ccccc4o3)cc2)Cc2ccc3c(c2)n(C)c(=O)n3C)c1 | 100 to 250 nM
CCN(CCc1ccc(NC(=O)c2cc(OC)c(OC)cc2NC(=O)c2cc(=O)c3ccccc3o2)cc1)Cc1ccc2c(c1)ncn2C | > 1000 nM

Exercise: // returns reported IC50 for input COc1cc(NC(=O)c2cc(=O)c3ccccc3o2)c(C(=O)NCc2ccc(CN(Cc3ccc(-c4cncs4)cc3)Cc3ccc4c(cnn4C)c3)cc2)cc1OC
Key: > 1000 nM

Exercise: // returns reported IC50 for input COc1cc(NC(=O)c2cc(=O)c3ccccc3o2)c(C(=O)Nc2ccc(CCN(C)Cc3cccc(-n4cnc(C)c4)c3)cc2)cc1OC
Key: 500 to 1000 nM

###

- Target: CYP3A4 (Homo sapiens)
- Experiment description: Determination of CYP3A4 inhibitory activity (human liver microsome, Luciferin-IPA)
- Run parameters: CYP3A4 IC50 (nM), 37° C. 11 minutes
IC50 listing for selected compounds.

Here are 8 compounds together with their reported answers.
Molecule smiles | Target | IC50
COc1cc(NC(=O)c2cc(=O)c3ccccc3o2)c(C(=O)Nc2ccc(CCNCc3cccnc3)cc2)cc1OC | CYP3A4 (Homo sapiens) | > 1000 nM
CCN(CCc1ccc(NC(=O)c2cc(OC)c(OC)cc2NC(=O)c2cc(=O)c3ccccc3o2)cc1)Cc1cccc(-n2cnc(C)c2)c1 | CYP3A4 (Homo sapiens) | 100 to 250 nM
Cn1ncc2cc(CN(CCc3ccc(NC(=O)c4ccc(C(=O)O)cc4NC(=O)c4cc(=O)c5ccccc5o4)cc3)Cc3ccc4c(cnn4C)c3)ccc21 | CYP3A4 (Homo sapiens) | > 1000 nM
COc1cc(NC(=O)c2cc(=O)c(O)co2)c(C(=O)Nc2ccc(CCN(C)Cc3ccc(-n4ccnc4)cc3)cc2)cc1OC | CYP3A4 (Homo sapiens) | 500 to 1000 nM
COc1ccc(CN(CCc2ccc(NC(=O)c3cc(OC)c(OC)cc3NC(=O)c3cc(=O)c4ccccc4o3)cc2)Cc2cccnc2)cc1OC | CYP3A4 (Homo sapiens) | 100 to 250 nM
COc1cc(NC(=O)c2cc(=O)c3ccccc3o2)c(C(=O)Nc2ccc(CCN(Cc3cccnc3)Cc3cccc4cnn(C)c34)cc2)cc1OC | CYP3A4 (Homo sapiens) | 500 to 1000 nM
COc1cc(NC(=O)c2cc(=O)c3cc(C)cc(C)c3o2)c(C(=O)Nc2ccc(CCN(Cc3cccc(-n4ccnc4)c3)Cc3ccc4c(cnn4C)c3)cc2)cc1OC | CYP3A4 (Homo sapiens) | > 1000 nM
CCN(CCc1ccc(NC(=O)c2cc(OC)c(OC)cc2NC(=O)c2cc(=O)c3ccccc3o2)cc1)Cc1cccc(OCCn2ccnc2)c1 | CYP3A4 (Homo sapiens) | < 100 nM

Exercise: // returns reported IC50 for input COCCOc1cncc(CN(CCc2ccc(NC(=O)c3cc(OC)c(OC)cc3NC(=O)c3cc(=O)c4cc(C)ccc4o3)cc2)Cc2ccc3c(c2)c(C)nn3C)c1
Key: 100 to 250 nM
